Provide the reported logP of each item.
- assayNotes: logP by HPLC on reversed-phase columns (C 18), EEC Directive 79/831 Annex V.A8
- Type: physicochemical
- details: method marker [b] (compound 257: pH2.7)

The reported value for CCCN(C)c1nc(Nc2ccccc2)ncc1Cl in terms of logP is 2.55[b]

The reported value for CC(C)Nc1nc(Nc2cccc(CS(=O)(=O)N(C)C)c2)ncc1Cl in terms of logP is 1.69[b]

The reported value for CC(C)Nc1nc(Nc2cccc(CS(=O)(=O)NC(C)c3ccccc3)c2)ncc1Cl (stereo not drawn) in terms of logP is 2.32[b]

The reported value for C=CCN(C)c1nc(Nc2ccccc2)ncc1Cl in terms of logP is 2.66[b]

The reported value for C=CCNc1nc(Nc2ccccc2)ncc1Cl in terms of logP is 1.64[b]

The reported value for CSc1cccc(Nc2ncc(Cl)c(NCC(C)C)n2)c1 in terms of logP is 2.69[b]

The reported value for Clc1cnc(Nc2ccccc2)nc1NC1CCCC1 in terms of logP is 2.28[b]

The reported value for C[Si](C)(C)CNc1nc(Nc2ccccc2)ncc1Cl in terms of logP is 2.14[b]

The reported value for CC(C)Nc1nc(Nc2cccc(CC#N)c2)ncc1Br in terms of logP is 1.84[b]

The reported value for CC(=O)c1cccc(Nc2ncc(Cl)c(NC3CCCCC3)n2)c1.Cl in terms of logP is 2.53[b]

The reported value for CSc1cccc(Nc2ncc(Cl)c(NC3CCCC3)n2)c1 in terms of logP is 2.93[b]

The reported value for CCN(c1nc(Nc2ccccc2)ncc1Cl)C(C)C in terms of logP is 3[b]

The reported value for COc1cc(Nc2ncc(Cl)c(NC3CCCCC3)n2)cc(OC)c1 in terms of logP is 2.77[b]

The reported value for CCC(=O)N(C)c1cccc(Nc2ncc(Cl)c(NC(C)C)n2)c1 in terms of logP is 1.76[b]

The reported value for CC(C)Nc1nc(Nc2cccc(CS(=O)(=O)NCc3ccccc3)c2)ncc1Cl in terms of logP is 2.18[b]

The reported value for COC(C)C(C)Nc1nc(Nc2ccccc2)ncc1Cl (stereo not drawn) in terms of logP is 2.04[b]

The reported value for CC(C)CCNc1nc(Nc2ccccc2)ncc1Cl in terms of logP is 2.37[b]

The reported value for CC(=O)Cc1cccc(Nc2ncc(Cl)c(NC3CCCC3)n2)c1 in terms of logP is 2.01[b]

The reported value for CCC(CC)Nc1nc(Nc2ccccc2)ncc1Cl in terms of logP is 2.34[b]

The reported value for CSCCNc1nc(Nc2ccccc2)ncc1Cl in terms of logP is 1.75[b]

The reported value for CC(Nc1nc(Nc2ccccc2)ncc1Cl)[Si](C)(C)C (stereo not drawn) in terms of logP is 2.66[b]

---

- assayNotes: logP by HPLC on reversed-phase columns (C 18), EEC Directive 79/831 Annex V.A8
- Format: physicochemical
- details: method marker [b]; footnote not given; compound 68 value matches logP (pH 2.3)
Provide the reported logP of each item.

The reported value for CCC(=O)c1ccc(Nc2ncc(Br)c(NC(C)COC)n2)cc1 (stereo not shown) [Example 78] in terms of logP is 2.57[b]

The reported value for COCCNc1nc(Nc2cc(OC)cc(OC)c2)ncc1Cl.Cl [Example 62] in terms of logP is 1.67[b]

The reported value for COCC(C)Nc1nc(Nc2cccc(S(=O)(=O)N3CCOCC3)c2)ncc1Cl (stereo not shown) [Example 29] in terms of logP is 2.04[b]

The reported value for COCC(C)Nc1nc(Nc2ccc(SC(F)(F)F)cc2)ncc1Cl (stereo not shown) [Example 88] in terms of logP is 3.81[b]

The reported value for COCC(C)Nc1nc(Nc2cccc(C#N)c2)ncc1Br (stereo not shown) [Example 108] in terms of logP is 2.26[b]

The reported value for COCC(C)Nc1nc(Nc2cccc(SC)c2)ncc1Br (stereo not shown) [Example 77] in terms of logP is 2.3[b]

The reported value for COCC(C)Nc1nc(Nc2ccc(C(F)(F)F)cc2)ncc1Cl (stereo not shown) [Example 82] in terms of logP is 3.22[b]

The reported value for COCC(C)Nc1nc(Nc2cccc(S(=O)(=O)N(C)C)c2)ncc1Br (stereo not shown) [Example 72] in terms of logP is 2.37[b]

The reported value for COCC(C)Nc1nc(Nc2ccc(N(C)C(C)=O)cc2)ncc1Cl (stereo not shown) [Example 99] in terms of logP is 1.48[b]

The reported value for COCC(C)Nc1nc(Nc2cc(Cl)cc(Cl)c2)ncc1Cl (stereo not shown) [Example 94] in terms of logP is 4.08[b]
